TARGET OR SYSTEM: GST-Ap-NF-kB RHD (Exaiptasia pallida (Aiptasia), UniProt A0A913YAJ5 2-422)
Sequence: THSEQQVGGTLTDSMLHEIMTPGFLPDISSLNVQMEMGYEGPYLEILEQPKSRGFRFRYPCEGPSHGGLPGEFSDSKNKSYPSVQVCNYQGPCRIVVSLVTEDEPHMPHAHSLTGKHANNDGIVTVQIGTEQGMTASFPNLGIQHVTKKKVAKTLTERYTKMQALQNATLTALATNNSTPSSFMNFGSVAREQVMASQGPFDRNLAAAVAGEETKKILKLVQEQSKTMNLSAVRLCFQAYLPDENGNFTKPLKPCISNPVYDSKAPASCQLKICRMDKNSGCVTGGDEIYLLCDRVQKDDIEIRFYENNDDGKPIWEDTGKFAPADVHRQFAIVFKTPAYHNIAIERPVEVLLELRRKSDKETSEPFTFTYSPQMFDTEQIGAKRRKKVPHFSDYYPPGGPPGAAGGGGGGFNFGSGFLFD
PROTOCOL: protein-binding microarray (PBM); PBM: ~300 nM protein, 6 mM HEPES pH 7.8, 80 mM KCl, 0.5 mM EDTA, 0.5 mM EGTA, 6% glycerol, 35 ng/ul poly-dIdC, 1% milk, 1 h, room temperature; high values mean tight binding
STATED CONDITIONS: dsDNA, one strand shown
PROPERTY MEASURED: binding signal (z-score)

>>> df
                             sequence_input  reported
0  CCGATTAACATCAACCAATCCCCTGATGTTAATCGGGTCTTGATTCGCTTGACGCTGCTG      5.19
1  CCGATTAACATCAAGGGGGTTCCTGATGTTAATCGGGTCTTGATTCGCTTGACGCTGCTG      9.16
2  CCGATTAACATCAGAATTCTCCCTGATGTTAATCGGGTCTTGATTCGCTTGACGCTGCTG      2.74
3  CCGATTAACATCAGGGGCTGTACTGATGTTAATCGGGTCTTGATTCGCTTGACGCTGCTG      2.83
4  CCGATTAACATCAAAGACCCCCCTGATGTTAATCGGGTCTTGATTCGCTTGACGCTGCTG      6.11
5  CCGATTAACATCACCACTTTCCCTGATGTTAATCGGGTCTTGATTCGCTTGACGCTGCTG      3.21
6  CCGATTAACATCACGTAAATCCCTGATGTTAATCGGGTCTTGATTCGCTTGACGCTGCTG      2.65
7  CCGATTAACATCAGGGAATATACTGATGTTAATCGGGTCTTGATTCGCTTGACGCTGCTG       3.5
8  CCGATTAACATCAAAATCCCGGGTGATGTTAATCGGGTCTTGATTCGCTTGACGCTGCTG      3.32

---

TARGET OR SYSTEM: GST-Hu-p50 (Homo sapiens, UniProt P19838 7-356)
Sequence (P19838 7-356): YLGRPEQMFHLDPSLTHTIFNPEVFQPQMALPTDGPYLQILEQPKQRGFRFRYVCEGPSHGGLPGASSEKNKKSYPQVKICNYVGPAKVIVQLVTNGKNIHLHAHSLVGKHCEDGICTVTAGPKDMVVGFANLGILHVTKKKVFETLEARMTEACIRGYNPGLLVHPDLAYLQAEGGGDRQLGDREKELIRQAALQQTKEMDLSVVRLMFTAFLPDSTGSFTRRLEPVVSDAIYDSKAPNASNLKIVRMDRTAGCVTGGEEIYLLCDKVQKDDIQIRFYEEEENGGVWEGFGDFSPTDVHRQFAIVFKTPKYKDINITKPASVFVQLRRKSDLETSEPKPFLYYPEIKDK
PROTOCOL: protein-binding microarray (PBM); PBM: ~300 nM protein, 6 mM HEPES pH 7.8, 80 mM KCl, 0.5 mM EDTA, 0.5 mM EGTA, 6% glycerol, 35 ng/ul poly-dIdC, 1% milk, 1 h, room temperature; Ap Aiptasia and Nv Nematostella (sea anemones) / Co Capsaspora / Aq Amphimedon (sponge) / Dm Drosophila / Hu human; RHD is the Rel homology domain; high values mean tight binding
STATED CONDITIONS: dsDNA, one strand shown
Listed sequences paired with reported binding signal
PROPERTY MEASURED: binding signal (z-score)

>>> print(df.to_string())
                              sequence_input  property_measured  reported
 0  CCGATTAACATCAGAGGATTCCCTGATGTTAATCGGGTCTTGATTCGCTTGACGCTGCTG     binding signal      2.84
 1  CCGATTAACATCAAAAATTACCCTGATGTTAATCGGGTCTTGATTCGCTTGACGCTGCTG     binding signal      5.22
 2  CCGATTAACATCAAAAAAATCCCTGATGTTAATCGGGTCTTGATTCGCTTGACGCTGCTG     binding signal      5.87
 3  CCGATTAACATCATATTTCCCCATGATGTTAATCGGGTCTTGATTCGCTTGACGCTGCTG     binding signal      6.08
 4  CCGATTAACATCAGGAAACAACCTGATGTTAATCGGGTCTTGATTCGCTTGACGCTGCTG     binding signal      1.61
 5  CCGATTAACATCACACTTTCCCCTGATGTTAATCGGGTCTTGATTCGCTTGACGCTGCTG     binding signal       5.3
 6  CCGATTAACATCAAAATTCCCGATGATGTTAATCGGGTCTTGATTCGCTTGACGCTGCTG     binding signal      4.38
 7  CCGATTAACATCAAAATTACCCATGATGTTAATCGGGTCTTGATTCGCTTGACGCTGCTG     binding signal      4.15
 8  CCGATTAACATCAAAGCTTCCCCTGATGTTAATCGGGTCTTGATTCGCTTGACGCTGCTG     binding signal       5.4
 9  CCGATTAACATCAGGGGAACAACTGATGTTAATCGGGTCTTGATTCGCTTGACGCTGCTG     binding signal      3.48
10  CCGATTAACATCAGGGGGGTTTATGATGTTAATCGGGTCTTGATTCGCTTGACGCTGCTG     binding signal      6.31
11  CCGATTAACATCACGGGGGAATATGATGTTAATCGGGTCTTGATTCGCTTGACGCTGCTG     binding signal      6.21
12  CCGATTAACATCAGGGATGCCCCTGATGTTAATCGGGTCTTGATTCGCTTGACGCTGCTG     binding signal      5.89
13  CCGATTAACATCAGGGGATATTATGATGTTAATCGGGTCTTGATTCGCTTGACGCTGCTG     binding signal      6.06
14  CCGATTAACATCAAAATCCCCCTTGATGTTAATCGGGTCTTGATTCGCTTGACGCTGCTG     binding signal       8.9
15  CCGATTAACATCATGAATTCCCATGATGTTAATCGGGTCTTGATTCGCTTGACGCTGCTG     binding signal      2.73
16  CCGATTAACATCAAACTTCCCCGTGATGTTAATCGGGTCTTGATTCGCTTGACGCTGCTG     binding signal      6.45
17  CCGATTAACATCAGGGGAATAAATGATGTTAATCGGGTCTTGATTCGCTTGACGCTGCTG     binding signal      5.62
18  CCGATTAACATCACAACGACCCCTGATGTTAATCGGGTCTTGATTCGCTTGACGCTGCTG     binding signal      1.12
19  CCGATTAACATCACGAAAACCCCTGATGTTAATCGGGTCTTGATTCGCTTGACGCTGCTG     binding signal      6.06
20  CCGATTAACATCAAATCCCCCCATGATGTTAATCGGGTCTTGATTCGCTTGACGCTGCTG     binding signal      6.55
21  CCGATTAACATCAGGATTTCCCCTGATGTTAATCGGGTCTTGATTCGCTTGACGCTGCTG     binding signal      7.53
22  CCGATTAACATCAAAATTTCCGGTGATGTTAATCGGGTCTTGATTCGCTTGACGCTGCTG     binding signal      2.46
23  CCGATTAACATCAGGGGGGATAATGATGTTAATCGGGTCTTGATTCGCTTGACGCTGCTG     binding signal      5.14
24  CCGATTAACATCATAAATTCCCATGATGTTAATCGGGTCTTGATTCGCTTGACGCTGCTG     binding signal      4.37
25  CCGATTAACATCAGAACATCCCCTGATGTTAATCGGGTCTTGATTCGCTTGACGCTGCTG     binding signal      5.45
26  CCGATTAACATCAGGACCCCCCCTGATGTTAATCGGGTCTTGATTCGCTTGACGCTGCTG     binding signal      4.44
27  CCGATTAACATCATGGGGAGGAATGATGTTAATCGGGTCTTGATTCGCTTGACGCTGCTG     binding signal      2.59
28  CCGATTAACATCACGGGGGTTCCTGATGTTAATCGGGTCTTGATTCGCTTGACGCTGCTG     binding signal      5.25
29  CCGATTAACATCAAGTAACCCCCTGATGTTAATCGGGTCTTGATTCGCTTGACGCTGCTG     binding signal      5.24
30  CCGATTAACATCAGGGAAGACCCTGATGTTAATCGGGTCTTGATTCGCTTGACGCTGCTG     binding signal      3.16
31  CCGATTAACATCAAGGGACTTTCTGATGTTAATCGGGTCTTGATTCGCTTGACGCTGCTG     binding signal      5.98
32  CCGATTAACATCAGGGGATTCGATGATGTTAATCGGGTCTTGATTCGCTTGACGCTGCTG     binding signal      5.33
33  CCGATTAACATCAGGGGGAGTTATGATGTTAATCGGGTCTTGATTCGCTTGACGCTGCTG     binding signal      6.55
34  CCGATTAACATCACGGGGAATTATGATGTTAATCGGGTCTTGATTCGCTTGACGCTGCTG     binding signal      6.24
35  CCGATTAACATCAGGGGATTACCTGATGTTAATCGGGTCTTGATTCGCTTGACGCTGCTG     binding signal      6.76
